- Assayed system: cysteines in MDA-MB-231 and Ramos cells (Homo sapiens, UniProt P31943)
- Sequence (P31943 whole entry, the tested form may be a part): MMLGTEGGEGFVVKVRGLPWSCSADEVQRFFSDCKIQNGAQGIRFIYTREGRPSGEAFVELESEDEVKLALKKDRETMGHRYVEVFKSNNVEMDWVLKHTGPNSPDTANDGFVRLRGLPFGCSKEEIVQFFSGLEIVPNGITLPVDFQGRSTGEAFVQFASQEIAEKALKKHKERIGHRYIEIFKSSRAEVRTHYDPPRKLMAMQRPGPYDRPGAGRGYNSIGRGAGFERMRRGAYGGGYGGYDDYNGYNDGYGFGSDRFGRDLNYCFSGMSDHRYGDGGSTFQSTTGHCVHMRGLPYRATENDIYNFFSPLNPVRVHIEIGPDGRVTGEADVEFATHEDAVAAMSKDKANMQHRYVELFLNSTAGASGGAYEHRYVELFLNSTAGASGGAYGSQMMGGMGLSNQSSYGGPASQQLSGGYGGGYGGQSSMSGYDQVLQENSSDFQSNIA
- Protocol description: Competitive isoTOP-ABPP in situ (fragment-treated cells)
- Assay type: cell-based
- Condition description: 200 μM, insitu, ramos
Attribute: isoTOP-ABPP ratio P31943_C267
Reported metric: isoTOP-ABPP ratio P31943_C267

{"columns": ["Compound", "Recorded number"],
 "data": [
  ["O=C(CCl)N1CCN(CC(=O)N2CCOCC2)CC1 [compound 29]", 1.4],
  ["C=CC(=O)N(Cc1cccnc1)c1cc(C(F)(F)F)cc(C(F)(F)F)c1 [compound 31]", 0.9],
  ["O=C(CCl)N1CCN(S(=O)(=O)c2ccccc2F)CC1 [compound 10]", 2.5],
  ["O=C(CCl)NCCc1c[nH]c2ccccc12 [compound 13]", 1.2]
]}

###

- Assayed system: cysteines in MDA-MB-231 and Ramos cells (Homo sapiens, UniProt Q7Z2W4)
- Sequence (Q7Z2W4 whole entry, the tested form may be a part): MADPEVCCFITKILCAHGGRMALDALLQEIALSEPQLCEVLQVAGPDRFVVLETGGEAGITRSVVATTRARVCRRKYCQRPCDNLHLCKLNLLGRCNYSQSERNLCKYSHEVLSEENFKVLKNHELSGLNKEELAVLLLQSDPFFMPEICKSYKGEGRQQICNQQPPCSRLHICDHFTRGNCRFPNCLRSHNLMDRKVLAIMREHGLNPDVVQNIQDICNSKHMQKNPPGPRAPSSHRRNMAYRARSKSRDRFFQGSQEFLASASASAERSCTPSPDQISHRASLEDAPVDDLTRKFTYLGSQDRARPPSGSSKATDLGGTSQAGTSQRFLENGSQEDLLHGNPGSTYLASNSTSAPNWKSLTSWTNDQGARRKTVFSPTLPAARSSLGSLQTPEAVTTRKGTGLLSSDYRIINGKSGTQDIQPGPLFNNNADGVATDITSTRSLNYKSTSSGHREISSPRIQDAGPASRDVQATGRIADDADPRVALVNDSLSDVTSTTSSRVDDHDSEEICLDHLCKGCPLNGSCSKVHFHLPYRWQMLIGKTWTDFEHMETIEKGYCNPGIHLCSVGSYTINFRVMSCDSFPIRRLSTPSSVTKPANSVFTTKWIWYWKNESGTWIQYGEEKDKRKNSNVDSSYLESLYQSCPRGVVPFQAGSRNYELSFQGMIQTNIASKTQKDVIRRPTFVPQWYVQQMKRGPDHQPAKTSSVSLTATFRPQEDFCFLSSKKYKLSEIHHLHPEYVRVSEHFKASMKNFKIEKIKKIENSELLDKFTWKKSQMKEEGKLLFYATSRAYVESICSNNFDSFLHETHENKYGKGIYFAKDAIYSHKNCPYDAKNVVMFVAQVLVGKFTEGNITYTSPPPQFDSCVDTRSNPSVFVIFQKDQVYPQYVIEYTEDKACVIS
- Protocol description: Competitive isoTOP-ABPP in situ (fragment-treated cells)
- Format: cell-based
- Condition description: 200 μM, insitu, 231
Attribute: isoTOP-ABPP ratio Q7Z2W4_C645

{"columns": ["Molecule", "isoTOP-ABPP ratio Q7Z2W4_C645"],
 "data": [
  ["C=CC(=O)Nc1cc(F)c(N2CCN(C(=O)OC(C)(C)C)CC2)c(F)c1", 0.9],
  ["O=C(CCl)NC(=O)NC12CC3CC(CC(C3)C1)C2", 3.3],
  ["CC1CCc2ccccc2N1C(=O)CCl (stereo not drawn)", 4.6],
  ["O=C(CCl)Nc1cccc2ncccc12", 1.6],
  ["Cc1ccc(C=C(C#N)C(=O)NCCN2CCOCC2)cc1", 0.9],
  ["O=C(CCl)NCCc1c[nH]c2ccccc12", 1.3],
  ["CC(C)CCOCCNC(=O)CCl", 0.8],
  ["O=C(CCl)NC12CC3CC(CC(C3)C1)C2", 0.9],
  ["O=C(CCl)N1CCN(S(=O)(=O)c2ccccc2F)CC1", 3.8]
]}

###

- Assayed system: cysteines in MDA-MB-231 and Ramos cells (Homo sapiens, UniProt P15121)
- Protocol description: Competitive isoTOP-ABPP in situ (fragment-treated cells)
- Format: cell-based
- Condition description: 200 μM, insitu, 231
Reported metric: isoTOP-ABPP ratio P15121_C299

{"columns": ["Compound", "Recorded number"],
 "data": [
  ["COc1ccccc1OCCNC(=O)CCl", 0.8],
  ["O=C(CCl)Nc1cccc2ncccc12", 0.9],
  ["O=C(CCl)NC12CC3CC(CC(C3)C1)C2", 2.7],
  ["O=C(CCl)NC(=O)NC12CC3CC(CC(C3)C1)C2", 0.7],
  ["O=C(CCl)N1CCN(S(=O)(=O)c2ccccc2F)CC1", 20.0],
  ["Cc1ccc(C=C(C#N)C(=O)NCCN2CCOCC2)cc1", 0.9],
  ["CC(C)CCOCCNC(=O)CCl", 0.5],
  ["CC1CCc2ccccc2N1C(=O)CCl (stereo not shown)", 1.0],
  ["C=CC(=O)Nc1cc(F)c(N2CCN(C(=O)OC(C)(C)C)CC2)c(F)c1", 1.0],
  ["C=CC(=O)N(Cc1cccnc1)c1cc(C(F)(F)F)cc(C(F)(F)F)c1", 0.8]
]}

###

Attribute: isoTOP-ABPP ratio P19447_C342
- Assayed system: ERCC3 C342 (P19447) (Homo sapiens, UniProt P19447)
- Sequence (P19447 whole entry): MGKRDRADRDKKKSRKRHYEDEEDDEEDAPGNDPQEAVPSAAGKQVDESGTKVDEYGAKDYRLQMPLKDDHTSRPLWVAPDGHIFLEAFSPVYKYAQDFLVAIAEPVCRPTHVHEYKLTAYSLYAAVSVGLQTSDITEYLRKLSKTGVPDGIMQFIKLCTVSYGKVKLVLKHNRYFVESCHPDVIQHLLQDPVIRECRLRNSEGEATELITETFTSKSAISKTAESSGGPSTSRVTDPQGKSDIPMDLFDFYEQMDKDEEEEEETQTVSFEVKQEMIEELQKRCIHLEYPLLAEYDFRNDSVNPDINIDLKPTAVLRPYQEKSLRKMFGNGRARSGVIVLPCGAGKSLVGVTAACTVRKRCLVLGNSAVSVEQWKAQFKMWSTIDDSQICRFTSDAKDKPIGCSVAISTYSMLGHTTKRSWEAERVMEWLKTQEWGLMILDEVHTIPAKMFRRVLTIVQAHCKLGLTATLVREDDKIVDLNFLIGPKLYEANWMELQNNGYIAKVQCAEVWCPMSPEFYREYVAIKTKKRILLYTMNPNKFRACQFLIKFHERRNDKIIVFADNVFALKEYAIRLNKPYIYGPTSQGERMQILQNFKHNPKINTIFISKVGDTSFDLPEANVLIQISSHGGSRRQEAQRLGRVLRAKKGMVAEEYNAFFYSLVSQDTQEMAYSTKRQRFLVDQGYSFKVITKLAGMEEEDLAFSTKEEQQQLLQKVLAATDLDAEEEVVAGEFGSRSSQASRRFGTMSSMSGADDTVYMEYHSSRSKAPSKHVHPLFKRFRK
- Protocol description: Competitive isoTOP-ABPP, cell lysates
- Assay type: binding
- Condition description: 500 μM, invitro, 231
Reported metric: isoTOP-ABPP ratio P19447_C342

{"columns": ["Smiles notation", "Assayed system", "Reported metric", "Recorded number"],
 "data": [
  ["CNS(=O)(=O)C=Cc1ccc2c(ccn2Cc2ccccc2)c1", "ERCC3 C342 (P19447) (Homo sapiens, UniProt P19447)", "isoTOP-ABPP ratio P19447_C342", 1.1],
  ["Cn1cc(S(=O)(=O)N2CCOCC2)cc1C(=O)NC(=O)CCl", "ERCC3 C342 (P19447) (Homo sapiens, UniProt P19447)", "isoTOP-ABPP ratio P19447_C342", 2.9],
  ["O=C(CCl)NCCc1c[nH]c2ccccc12", "ERCC3 C342 (P19447) (Homo sapiens, UniProt P19447)", "isoTOP-ABPP ratio P19447_C342", 1.0],
  ["O=C(CCl)NC(=O)NC12CC3CC(CC(C3)C1)C2", "ERCC3 C342 (P19447) (Homo sapiens, UniProt P19447)", "isoTOP-ABPP ratio P19447_C342", 3.0],
  ["O=C(CCl)N1CCN(S(=O)(=O)c2ccccc2F)CC1", "ERCC3 C342 (P19447) (Homo sapiens, UniProt P19447)", "isoTOP-ABPP ratio P19447_C342", 3.0]
]}

###

- Assayed system: UniProt O14980
- Sequence (O14980 whole entry): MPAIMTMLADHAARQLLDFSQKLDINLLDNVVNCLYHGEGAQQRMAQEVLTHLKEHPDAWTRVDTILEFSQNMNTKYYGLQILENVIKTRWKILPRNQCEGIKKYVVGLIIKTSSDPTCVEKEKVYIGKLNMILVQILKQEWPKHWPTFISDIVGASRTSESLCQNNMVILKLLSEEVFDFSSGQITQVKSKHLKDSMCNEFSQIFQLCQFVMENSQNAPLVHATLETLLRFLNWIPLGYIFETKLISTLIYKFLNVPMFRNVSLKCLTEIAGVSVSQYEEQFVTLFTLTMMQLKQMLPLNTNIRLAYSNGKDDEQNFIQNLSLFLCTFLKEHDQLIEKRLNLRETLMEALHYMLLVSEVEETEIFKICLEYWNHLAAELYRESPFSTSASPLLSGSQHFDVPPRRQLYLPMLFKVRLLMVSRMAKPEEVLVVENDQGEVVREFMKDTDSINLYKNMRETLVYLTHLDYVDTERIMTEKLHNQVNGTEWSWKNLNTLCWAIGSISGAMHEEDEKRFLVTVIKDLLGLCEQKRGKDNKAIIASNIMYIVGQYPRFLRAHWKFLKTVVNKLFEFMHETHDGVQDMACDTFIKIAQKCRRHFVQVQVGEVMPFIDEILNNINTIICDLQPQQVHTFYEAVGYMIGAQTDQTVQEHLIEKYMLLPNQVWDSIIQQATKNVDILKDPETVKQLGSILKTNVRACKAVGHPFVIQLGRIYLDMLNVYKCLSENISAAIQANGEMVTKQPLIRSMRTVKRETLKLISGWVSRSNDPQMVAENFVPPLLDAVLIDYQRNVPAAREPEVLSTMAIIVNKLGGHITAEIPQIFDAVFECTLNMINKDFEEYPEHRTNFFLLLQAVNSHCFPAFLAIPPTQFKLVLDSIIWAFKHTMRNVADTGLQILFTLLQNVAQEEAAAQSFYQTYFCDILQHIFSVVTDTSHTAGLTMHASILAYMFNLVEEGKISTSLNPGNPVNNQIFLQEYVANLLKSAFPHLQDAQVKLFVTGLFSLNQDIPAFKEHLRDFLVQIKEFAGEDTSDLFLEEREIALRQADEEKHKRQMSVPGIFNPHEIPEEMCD
- Protocol description: Competitive isoTOP-ABPP, cell lysates
- Type: binding
- Condition description: 500 μM, invitro, 231
- Description: TEV digests were pressure loaded onto a 250 μm (inner diameter) fused silica capillary column packed with C18 resin (Aqua 5 μm, Phenomenex). The samples were analyzed by multidimensional liquid chromatography tandem mass spectrometry (MudPIT), using an LTQ-Velos Orbitrap mass spectrometer (Thermo Scientific) coupled to an Agilent 1200-series quaternary pump. […]

{"columns": ["Compound", "Assayed system", "isoTOP-ABPP ratio O14980_C528"],
 "data": [
  ["CNS(=O)(=O)C=Cc1ccc2c(ccn2Cc2ccccc2)c1 [compound 6]", "UniProt O14980", 0.7],
  ["C=CC(=O)N(c1ccccc1)c1ccc(Br)cc1 [compound 5]", "UniProt O14980", 20.0],
  ["Cn1cc(S(=O)(=O)N2CCOCC2)cc1C(=O)NC(=O)CCl [compound 11]", "UniProt O14980", 1.0],
  ["O=C(CCl)N1CCN(S(=O)(=O)c2ccccc2F)CC1 [compound 10]", "UniProt O14980", 0.8],
  ["O=C(CCl)NC(=O)NC12CC3CC(CC(C3)C1)C2 [compound 12]", "UniProt O14980", 1.1],
  ["C=CC(=O)N(Cc1cccnc1)c1ccc(Oc2ccccc2)c(C(F)(F)F)c1 [compound 15]", "UniProt O14980", 0.8]
]}

###

- Assayed system: cysteines in MDA-MB-231 and Ramos cells (Homo sapiens, UniProt P13667)
- Sequence (P13667 21-645): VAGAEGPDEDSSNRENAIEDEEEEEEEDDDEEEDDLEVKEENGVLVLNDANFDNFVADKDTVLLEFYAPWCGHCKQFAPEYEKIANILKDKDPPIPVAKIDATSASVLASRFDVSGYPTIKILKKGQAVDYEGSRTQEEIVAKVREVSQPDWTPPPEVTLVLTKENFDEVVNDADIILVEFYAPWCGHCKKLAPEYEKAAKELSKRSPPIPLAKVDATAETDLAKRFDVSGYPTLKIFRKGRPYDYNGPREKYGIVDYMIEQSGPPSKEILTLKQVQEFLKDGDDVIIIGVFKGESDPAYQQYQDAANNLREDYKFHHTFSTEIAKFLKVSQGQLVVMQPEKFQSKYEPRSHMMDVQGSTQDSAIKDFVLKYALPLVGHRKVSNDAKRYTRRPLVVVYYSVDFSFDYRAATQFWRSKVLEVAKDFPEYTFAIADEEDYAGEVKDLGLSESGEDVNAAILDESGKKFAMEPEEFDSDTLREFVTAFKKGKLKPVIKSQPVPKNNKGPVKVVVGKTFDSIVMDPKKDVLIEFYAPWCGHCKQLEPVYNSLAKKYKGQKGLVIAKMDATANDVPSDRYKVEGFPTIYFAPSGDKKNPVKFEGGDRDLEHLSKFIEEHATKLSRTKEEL
- Protocol description: Competitive isoTOP-ABPP in situ (fragment-treated cells)
- Type: cell-based
- Condition description: 200 μM, insitu, 231
Attribute: isoTOP-ABPP ratio P13667_C555
Reported metric: isoTOP-ABPP ratio P13667_C555

{"columns": ["Compound", "Recorded number"],
 "data": [
  ["CC1CCc2ccccc2N1C(=O)CCl (centres unmarked) [compound 45]", 2.6],
  ["O=C(CCl)N1CCN(S(=O)(=O)c2ccccc2F)CC1 [compound 10]", 3.3],
  ["C=CC(=O)Nc1cc(F)c(N2CCN(C(=O)OC(C)(C)C)CC2)c(F)c1 [compound 38]", 0.8],
  ["Cc1ccc(C=C(C#N)C(=O)NCCN2CCOCC2)cc1 [compound 41]", 1.0],
  ["O=C(CCl)NC(=O)NC12CC3CC(CC(C3)C1)C2 [compound 12]", 20.0],
  ["CC(C)CCOCCNC(=O)CCl [compound 27]", 1.2],
  ["O=C(CCl)Nc1cccc2ncccc12 [compound 51]", 6.0],
  ["C=CC(=O)N(Cc1cccnc1)c1cc(C(F)(F)F)cc(C(F)(F)F)c1 [compound 31]", 0.8]
]}

Data provenance: patent US10670605B2
